molecular target: T1, Human recombinant Bcl-2 (1-205), soluble GST-fusion (Santa Cruz Biotechnology) (human, UniProt P10415 1-205); assay: fluorescence emission titration, fluorescein-labelled peptide + serially diluted Bcl-2, 4 C, PBS
T1 construct: Bought; also called GST-Bcl-2; not shown: glutathione S-transferase (GST) fusion partner
T1 sequence (P10415 1-205): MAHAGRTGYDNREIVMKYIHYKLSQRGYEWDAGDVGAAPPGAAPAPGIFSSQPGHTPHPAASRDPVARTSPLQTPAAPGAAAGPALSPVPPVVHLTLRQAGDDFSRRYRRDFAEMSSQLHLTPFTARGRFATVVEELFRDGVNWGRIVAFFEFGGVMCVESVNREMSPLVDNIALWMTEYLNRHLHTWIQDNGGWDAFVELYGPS
Ends that are not written are not given here.
Rule: Kd below 0.8 µM gives TRUE, anything at or above gives FALSE.

Challenge: In the record for GPSQPTYPGDDAPVEDLIRFVGRLLAYFGDTINRYC(5‑iodoacetamidofluorescein)-NH2 (designed binder, also called p4121-flu (labelled form, by order and mass)) [p4099] , is Kd less than 0.8 µM?
Response given: TRUE

Challenge: In the record for GPSQPTYPGDDAPVEDLIRFVSRLRYIADLINRYC(5‑iodoacetamidofluorescein)-NH2 (designed binder, Mutant with a single amino acid deletion in the alpha-helix; Amino terminal portion from aPP (e.g., residues 1-19); also called p4124 (labelled form, by order and mass)) [p4102] , is Kd less than 0.8 µM?
Response given: FALSE

Challenge: In the record for GQVGRQLAIIGDDINRYC-NH2 (not fully specified (residue 18), Labelled form used for Kd determinations carries an additional carboxy-terminal YC; The printed mass (1724) looks too small for residues 72-94; also called Bak BH3 peptide; Bak (72-94)) [Bak peptide] , is Kd less than 0.8 µM?
Response given: TRUE

Challenge: In the record for GPSQPTYPGDDAPVEDLIRFVGRLLRYFGDEINRYC(5‑iodoacetamidofluorescein)-NH2 (designed binder, As for p4099: amino terminal portion from aPP (e.g., residues 1-19); also called p4122 (labelled form, by order and mass)) [p4100] , is Kd less than 0.8 µM?
Response given: TRUE
